STUDY_TARGET: recombinant ABL1 kinase (Homo sapiens, UniProt P00519)
Sequence (P00519 whole entry): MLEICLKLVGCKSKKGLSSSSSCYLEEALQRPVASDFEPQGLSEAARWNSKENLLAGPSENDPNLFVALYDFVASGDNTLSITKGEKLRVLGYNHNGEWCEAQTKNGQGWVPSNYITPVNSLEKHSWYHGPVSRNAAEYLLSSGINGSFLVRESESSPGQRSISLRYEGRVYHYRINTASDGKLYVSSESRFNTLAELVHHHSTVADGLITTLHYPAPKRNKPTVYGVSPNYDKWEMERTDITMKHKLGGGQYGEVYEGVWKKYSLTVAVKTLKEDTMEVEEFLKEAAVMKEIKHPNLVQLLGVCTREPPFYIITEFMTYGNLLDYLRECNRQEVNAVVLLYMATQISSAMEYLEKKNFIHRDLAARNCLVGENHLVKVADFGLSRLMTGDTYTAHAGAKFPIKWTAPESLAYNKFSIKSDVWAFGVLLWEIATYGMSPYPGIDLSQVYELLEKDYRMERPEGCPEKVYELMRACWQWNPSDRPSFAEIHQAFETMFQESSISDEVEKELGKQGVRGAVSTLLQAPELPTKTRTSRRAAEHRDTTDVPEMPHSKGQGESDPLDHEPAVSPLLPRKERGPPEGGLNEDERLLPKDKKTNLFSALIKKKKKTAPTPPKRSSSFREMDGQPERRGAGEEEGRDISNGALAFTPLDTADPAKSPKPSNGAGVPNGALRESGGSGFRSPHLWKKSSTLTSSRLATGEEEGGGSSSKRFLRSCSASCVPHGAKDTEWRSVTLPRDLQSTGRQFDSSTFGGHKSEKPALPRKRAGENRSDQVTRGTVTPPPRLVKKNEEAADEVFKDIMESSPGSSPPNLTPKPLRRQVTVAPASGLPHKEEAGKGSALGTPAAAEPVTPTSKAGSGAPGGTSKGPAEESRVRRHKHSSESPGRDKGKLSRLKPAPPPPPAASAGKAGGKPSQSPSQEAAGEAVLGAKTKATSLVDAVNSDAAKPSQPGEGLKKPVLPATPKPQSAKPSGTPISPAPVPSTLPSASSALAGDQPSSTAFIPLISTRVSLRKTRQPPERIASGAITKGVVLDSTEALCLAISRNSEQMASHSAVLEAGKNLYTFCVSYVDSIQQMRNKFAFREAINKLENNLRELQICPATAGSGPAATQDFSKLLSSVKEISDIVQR
ASSAY_EXPLANATION: ABL1 kinase assay (ADP-Glo)
Type: biochemical
TEST_CONTEXT: 10 μM, 40 min incubation
PARAMETER: inhibition at 10 µM (%)

Exercise: If you can, please state the reported inhibition at 10 µM value of Cc1ccc(NC(=O)c2ccc(CN3CCC(n4cnnc4)CC3)cc2)cc1Nc1nccc(-c2cccnc2)n1 .
Solution: 36.1

[a] Cc1ccc(NC(=O)c2ccc(CN3CCC(n4cccc4)CC3)cc2)cc1Nc1nccc(-c2cccnc2)n1
[b] Cc1ccc(NC(=O)c2ccc(CN3CCC(c4ccccn4)CC3)cc2)cc1Nc1nccc(-c2cccnc2)n1
Exercise: Among a and b , whose measured inhibition at 10 µM is the smaller figure? // return label of chosen record
Solution: b
